Sourced from ChEMBL document CHEMBL1138512

Biological target: Aurora kinase B (Homo sapiens, UniProt Q96GD4, E161T)
Sequence (Q96GD4 whole entry E161T): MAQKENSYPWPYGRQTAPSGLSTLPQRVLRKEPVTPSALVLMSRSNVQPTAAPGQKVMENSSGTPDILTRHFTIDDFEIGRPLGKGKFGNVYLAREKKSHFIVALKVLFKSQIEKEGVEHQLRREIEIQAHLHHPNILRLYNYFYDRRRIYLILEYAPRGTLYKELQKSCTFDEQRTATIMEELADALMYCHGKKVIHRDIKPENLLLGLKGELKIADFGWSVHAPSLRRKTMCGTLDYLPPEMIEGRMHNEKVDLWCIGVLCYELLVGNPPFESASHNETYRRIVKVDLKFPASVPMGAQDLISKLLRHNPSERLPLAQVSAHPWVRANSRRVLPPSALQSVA
Assay: Inhibition of N-terminal flag-tagged Aurora B E161T mutant expressed in Escherichia coli BL21-DE3
Quick list: IC50 per entry.
readout label: IC50 (nM)

>  <sample smiles>
CC(=O)N1CCN(C(=O)Cc2ccc(Nc3ncc(F)c(Nc4ccc(C(=O)Nc5ccccc5Cl)cc4)n3)cc2)CC1

>  <measurement units>
nM

>  <measurement>
57

$$$$
>  <sample smiles>
CCN1CCN(C(=O)Cc2ccc(Nc3ncc(F)c(Nc4ccc(C(=O)Nc5ccccc5Cl)cc4)n3)cc2)CC1

>  <measurement units>
nM

>  <measurement>
55

$$$$

###

Biological target: UniProtKB O14965
Sequence (O14965 whole entry): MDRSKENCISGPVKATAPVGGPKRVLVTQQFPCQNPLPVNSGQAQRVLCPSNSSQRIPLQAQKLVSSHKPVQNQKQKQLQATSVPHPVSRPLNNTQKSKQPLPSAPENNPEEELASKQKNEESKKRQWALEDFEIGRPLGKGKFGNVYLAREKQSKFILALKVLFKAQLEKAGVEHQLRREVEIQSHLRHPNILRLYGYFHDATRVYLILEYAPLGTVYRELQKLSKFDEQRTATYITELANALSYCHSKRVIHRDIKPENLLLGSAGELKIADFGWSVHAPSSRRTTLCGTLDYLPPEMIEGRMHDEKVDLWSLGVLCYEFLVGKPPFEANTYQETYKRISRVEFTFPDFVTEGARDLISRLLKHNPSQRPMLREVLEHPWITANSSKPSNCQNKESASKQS
Test: Inhibition of N-terminal flag-tagged Aurora A expressed in Escherichia coli BL21-DE3 by ELISA
readout label: IC50

>  <sample smiles>
CCCNC(=O)c1ccc(Nc2nc(Nc3ccc(O)cc3)ncc2F)cc1

>  <test system>
UniProtKB O14965

>  <readout label>
IC50

>  <measurement>
49 nM

$$$$
>  <sample smiles>
O=C(Nc1ccc(Cl)cc1)c1ccc(Nc2nc(Nc3ccc(O)cc3)ncc2F)cc1

>  <test system>
UniProtKB O14965

>  <readout label>
IC50

>  <measurement>
64 nM

$$$$
>  <sample smiles>
O=C(Nc1ccccc1O)c1ccc(Nc2nc(Nc3ccc(O)cc3)ncc2F)cc1

>  <test system>
UniProtKB O14965

>  <readout label>
IC50

>  <measurement>
28 nM

$$$$
>  <sample smiles>
CCCc1cnc(Nc2ccc(O)cc2)nc1Nc1ccc(O)cc1

>  <test system>
UniProtKB O14965

>  <readout label>
IC50

>  <measurement>
11000 nM

$$$$
>  <sample smiles>
COc1ccccc1Nc1nc(Nc2ccc(O)cc2)ncc1F

>  <test system>
UniProtKB O14965

>  <readout label>
IC50

>  <measurement>
20 nM

$$$$
>  <sample smiles>
O=C(Nc1ccc(Nc2nc(Nc3ccc(O)cc3)ncc2F)cc1)c1ccccc1

>  <test system>
UniProtKB O14965

>  <readout label>
IC50

>  <measurement>
18 nM

$$$$
>  <sample smiles>
Cc1cc(Nc2ccc(O)cc2)nc(Nc2ccc(O)cc2)n1

>  <test system>
UniProtKB O14965

>  <readout label>
IC50

>  <measurement>
> 17000 nM

$$$$
>  <sample smiles>
Oc1ccc(Nc2cc(Cl)nc(Nc3ccc(O)cc3)n2)cc1

>  <test system>
UniProtKB O14965

>  <readout label>
IC50

>  <measurement>
> 17000 nM

$$$$
>  <sample smiles>
O=C(Nc1ccc(Nc2nc(Nc3ccc(O)cc3)ncc2F)cc1)c1ccccc1F

>  <test system>
UniProtKB O14965

>  <readout label>
IC50

>  <measurement>
14 nM

$$$$
>  <sample smiles>
O=C(Nc1ccccc1F)c1ccc(Nc2nc(Nc3ccc(O)cc3)ncc2F)cc1

>  <test system>
UniProtKB O14965

>  <readout label>
IC50

>  <measurement>
9 nM

$$$$
>  <sample smiles>
COc1cccc(NC(=O)c2ccc(Nc3nc(Nc4ccc(O)cc4)ncc3F)cc2)c1

>  <test system>
UniProtKB O14965

>  <readout label>
IC50

>  <measurement>
36 nM

$$$$
>  <sample smiles>
O=C(Nc1ccc(F)cc1)c1ccc(Nc2nc(Nc3ccc(O)cc3)ncc2F)cc1

>  <test system>
UniProtKB O14965

>  <readout label>
IC50

>  <measurement>
25 nM

$$$$
>  <sample smiles>
CN(C)C(=O)c1ccc(Nc2nc(Nc3ccc(O)cc3)ncc2F)cc1

>  <test system>
UniProtKB O14965

>  <readout label>
IC50

>  <measurement>
640 nM

$$$$
>  <sample smiles>
Cc1cccc(Nc2nc(Nc3ccc(O)cc3)ncc2F)c1

>  <test system>
UniProtKB O14965

>  <readout label>
IC50

>  <measurement>
180 nM

$$$$
>  <sample smiles>
Oc1ccc(Nc2ncc(C(F)(F)F)c(Nc3ccc(O)cc3)n2)cc1

>  <test system>
UniProtKB O14965

>  <readout label>
IC50

>  <measurement>
14 nM

$$$$
>  <sample smiles>
Cc1ccc(NC(=O)c2ccc(Nc3nc(Nc4ccc(O)cc4)ncc3F)cc2)cc1

>  <test system>
UniProtKB O14965

>  <readout label>
IC50

>  <measurement>
180 nM

$$$$
>  <sample smiles>
Cc1ccc(Nc2nc(Nc3ccc(O)cc3)ncc2F)cc1

>  <test system>
UniProtKB O14965

>  <readout label>
IC50

>  <measurement>
75 nM

$$$$
>  <sample smiles>
O=C(Nc1ccccc1)c1ccc(Nc2nc(Nc3ccc(O)cc3)ncc2F)cc1

>  <test system>
UniProtKB O14965

>  <readout label>
IC50

>  <measurement>
19 nM

$$$$
>  <sample smiles>
O=C(Nc1cccc(O)c1)c1ccc(Nc2nc(Nc3ccc(O)cc3)ncc2F)cc1

>  <test system>
UniProtKB O14965

>  <readout label>
IC50

>  <measurement>
19 nM

$$$$
>  <sample smiles>
Oc1ccc(Nc2ncc(F)c(Nc3ccc(O)cc3)n2)cc1

>  <test system>
UniProtKB O14965

>  <readout label>
IC50

>  <measurement>
30 nM

$$$$
>  <sample smiles>
Oc1ccc(Nc2ccnc(Nc3ccc(O)cc3)n2)cc1

>  <test system>
UniProtKB O14965

>  <readout label>
IC50

>  <measurement>
490 nM

$$$$
>  <sample smiles>
Cc1ccccc1NC(=O)c1ccc(Nc2nc(Nc3ccc(O)cc3)ncc2F)cc1

>  <test system>
UniProtKB O14965

>  <readout label>
IC50

>  <measurement>
20 nM

$$$$
>  <sample smiles>
Fc1ccc(Nc2ncc(F)c(Nc3ccc(F)cc3)n2)cc1

>  <test system>
UniProtKB O14965

>  <readout label>
IC50

>  <measurement>
200 nM

$$$$
>  <sample smiles>
O=C(Nc1ccccc1Cl)c1ccc(Nc2nc(Nc3ccc(O)cc3)ncc2F)cc1

>  <test system>
UniProtKB O14965

>  <readout label>
IC50

>  <measurement>
10 nM

$$$$
>  <sample smiles>
Cc1ccccc1Nc1nc(Nc2ccc(O)cc2)ncc1F

>  <test system>
UniProtKB O14965

>  <readout label>
IC50

>  <measurement>
67 nM

$$$$
>  <sample smiles>
NC(=O)c1ccc(Nc2nc(Nc3ccc(O)cc3)ncc2F)cc1

>  <test system>
UniProtKB O14965

>  <readout label>
IC50

>  <measurement>
160 nM

$$$$
>  <sample smiles>
O=C(NC1CC1)c1ccc(Nc2nc(Nc3ccc(O)cc3)ncc2F)cc1

>  <test system>
UniProtKB O14965

>  <readout label>
IC50

>  <measurement>
54 nM

$$$$
>  <sample smiles>
CCN1CCN(C(=O)Cc2ccc(Nc3ncc(F)c(Nc4ccc(C(=O)Nc5ccccc5Cl)cc4)n3)cc2)CC1

>  <test system>
UniProtKB O14965

>  <readout label>
IC50

>  <measurement>
3.4 nM

$$$$
>  <sample smiles>
Cc1nc(Nc2ccc(O)cc2)nc(Nc2ccc(O)cc2)c1C

>  <test system>
UniProtKB O14965

>  <readout label>
IC50

>  <measurement>
> 17000 nM

$$$$
>  <sample smiles>
Cc1cccc(Nc2ncc(F)c(Nc3cccc(C)c3)n2)c1

>  <test system>
UniProtKB O14965

>  <readout label>
IC50

>  <measurement>
680 nM

$$$$
>  <sample smiles>
COc1ccc(Nc2nc(Nc3ccc(O)cc3)ncc2F)cc1

>  <test system>
UniProtKB O14965

>  <readout label>
IC50

>  <measurement>
78 nM

$$$$
